Molecular target: purified catalytic domain of recombinant human TACE (rhTACEc) (Homo sapiens, UniProt P78536, N452Q/S266A)
Construct: 6xHis (C); made in house; host or cells: baculovirus/Hi5 insect cells
Sequence (P78536 215-477 S266A/N452Q): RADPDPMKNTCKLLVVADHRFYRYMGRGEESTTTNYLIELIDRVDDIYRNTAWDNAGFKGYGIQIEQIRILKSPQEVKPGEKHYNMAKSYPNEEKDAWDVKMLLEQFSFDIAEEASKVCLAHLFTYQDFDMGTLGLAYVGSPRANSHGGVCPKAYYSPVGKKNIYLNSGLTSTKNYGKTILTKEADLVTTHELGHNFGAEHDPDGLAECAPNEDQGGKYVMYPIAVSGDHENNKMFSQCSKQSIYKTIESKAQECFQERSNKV
Assay: TACE kinetic assay: cleavage of internally quenched peptide substrate TNF-FRET 2 (Ki)
Format: biochemical
Settings: TNF-FRET 2 substrate, read-out: Ki
Checkbox rule: Ki lower than 0.7 nM = MET; Ki not lower than 0.7 nM = NOT MET.

Examples with answers:
COc1ccc2c(c1)C(=O)N(C[C@@]1(c3cc4cc(S(N)(=O)=O)ccc4o3)NC(=O)NC1=O)C2    MET
COc1ccc2c(c1)C(=O)N(C[C@@]1(c3cc4cnc(N)cc4o3)NC(=O)NC1=O)C2    MET
COc1ccc2c(c1)C(=O)N(C[C@@]1(c3cc4cc(C(=O)N(C)CCN(C)C)c(F)cc4o3)NC(=O)NC1=O)C2    NOT MET

Is the reported Ki for COc1ccc2c(c1)C(=O)N(C[C@@]1(c3cc4nc(C5CC5)ccc4o3)NC(=O)NC1=O)C2 strictly below 0.7 nM?
NOT MET

###

Listed below: pKi values for each entry.
Biological target: purified catalytic domain of recombinant human TACE (rhTACEc) (Homo sapiens, UniProt P78536, N452Q/S266A)
Construct: 6xHis (C); made in house; host or cells: baculovirus/Hi5 insect cells
Test: TACE kinetic assay: cleavage of internally quenched peptide substrate TNF-FRET 2 (Ki)
Format: biochemical
Settings: TNF-FRET 2 substrate, read-out: Ki
Reminder that pKi is minus the log10 of a molar concentration.

COc1ccc2c(c1)C(=O)N(C[C@@]1(c3cc4nc(N5CCOCC5)ccc4o3)NC(=O)NC1=O)C2    9.25
COc1ccc2c(c1)C(=O)N(C[C@@]1(c3cc4cc(-c5cc(O)n[nH]5)cnc4o3)NC(=O)NC1=O)C2    8.97

Report pKi for COc1ccc2c(c1F)C(=O)N(C[C@@]1(c3cc4nc(N5C[C@@H](O)CC5=O)ccc4o3)NC(=O)NC1=O)C2 please.
9.30

Report pKi for COc1ccc2c(c1)C(=O)N(C[C@@]1(c3cc4cc(-c5cc(O)nc(N)n5)cnc4o3)NC(=O)NC1=O)C2 please.
9.28

Report pKi for COc1ccc2c(c1)C(=O)N(C[C@@]1(c3cc4nc(-c5cnn(CC(C)C)c5)ccc4o3)NC(=O)NC1=O)C2 please.
9.71

Report pKi for COc1ccc2c(c1)C(=O)N(C[C@@]1(c3cc4nc(N5CCN(CCN(C)C)CC5)ccc4o3)NC(=O)NC1=O)C2 please.
9.06

Report pKi for COc1ccc2c(c1F)C(=O)N(C[C@@]1(c3cc4nc(N5CCN(C)CC5)c(F)cc4o3)NC(=O)NC1=O)C2 please.
8.97

Report pKi for COc1ccc2c(c1F)C(=O)N(C[C@@]1(c3cc4cc(-c5c(C)nn(C)c5C)c(F)cc4o3)NC(=O)NC1=O)C2 [Compound 1182] please.
9.39

Report pKi for COc1ccc2c(c1)C(=O)N(C[C@@]1(c3cc4c(N5CCNC(=O)C5)nccc4o3)NC(=O)NC1=O)C2 please.
8.96

###

Molecular target: purified catalytic domain of recombinant human TACE (rhTACEc) (Homo sapiens, UniProt P78536, N452Q/S266A)
Construct: 6xHis (C); made in house; host or cells: baculovirus/Hi5 insect cells
Experiment: TACE kinetic assay: cleavage of internally quenched peptide substrate TNF-FRET 2 (Ki)
Assay type: biochemical
Conditions: TNF-FRET 2 substrate, read-out: Ki
measurement type: Ki (nM)
Provide the reading as a plain figure in nM.

Here are 3 compounds together with their reported answers.
COc1ccc2c(c1)C(=O)N(C[C@@]1(c3cc4cc(N)ccc4o3)NC(=O)NC1=O)C2    0.807
COc1ccc2c(c1)C(=O)N(C[C@@]1(c3cc4cc(CN)ccc4o3)NC(=O)NC1=O)C2    0.79
COc1ccc2c(c1)C(=O)N(C[C@@]1(c3cc4nc(-c5c(C)noc5C)ccc4o3)NC(=O)NC1=O)C2    0.5

Next compound, Ki to be filled in.
Report Ki for COc1ccc2c(c1F)C(=O)N(C[C@@]1(c3cc4nc(N(c5cn[nH]c5)C5CCNCC5)ccc4o3)NC(=O)NC1=O)C2 please.
1.31

###

Test: Area under the curve determinations of plasma levels in rats (rrAUC), oral 10 mg/kg
Type: in vivo
Conditions: rat, plasma 0.5-6 h, read-out: RR AUC (rapid rat AUC, rrAUC)
Listed below: AUC values for each entry.
Provide the reading as a plain figure in µM·h.

Here are 3 compounds together with their reported answers.
COc1ccc2c(c1)C(=O)N(C[C@@]1(c3cc4cc(C5(C)NC(=O)NC5=O)cnc4o3)NC(=O)NC1=O)C2 (stereo partly shown) [Compound 500]    1.1
COc1ccc2c(c1)C(=O)N(C[C@@]1(c3cc4nc(N5CCC[C@H]5CO)ccc4o3)NC(=O)NC1=O)C2 [Compound 1513]    0.524
COc1ccc2c(c1F)C(=O)N(C[C@@]1(c3cc4nc(C)c(N5CCC5=O)cc4o3)NC(=O)NC1=O)C2 [Compound 1922]    0.088

Next compound, AUC to be filled in.
Report AUC for COc1ccc2c(c1F)C(=O)N(C[C@@]1(c3cc4cc(C5(C)NC(=O)NC5=O)c(F)cc4o3)NC(=O)NC1=O)C2 (stereo partly shown) [Compound 1316] please.
45.7

###

Assay: Area under the curve determinations of plasma levels in rats (rrAUC), oral 10 mg/kg
Type: in vivo
Conditions: rat, plasma 0.5-6 h, read-out: RR AUC (rapid rat AUC, rrAUC)
measurement type: AUC (nM·h)
Provide the reading as a plain figure in nM·h.

CCOc1ccc2c(c1F)C(=O)N(C[C@@]1(c3cc4nc(N5CCN(CC)CC5)ccc4o3)NC(=O)NC1=O)C2 [Compound 903]    1000

Report AUC for COc1ccc2c(c1)C(=O)N(C[C@@]1(c3cn4cccnc4n3)NC(=O)NC1=O)C2 [Compound 750] please.
320

Report AUC for COc1ccc2c(c1F)C(=O)N(C[C@@]1(c3cc4cc(C)ncc4o3)NC(=O)NC1=O)C2 [Compound 305] please.
19100

Report AUC for COc1ccc2c(c1F)C(=O)N(C[C@@]1(c3cc4nc(Nc5ccc(-c6cn[nH]c6)cn5)ccc4o3)NC(=O)NC1=O)C2 [Compound 1734] please.
68

###

Biological target: purified catalytic domain of recombinant human TACE (rhTACEc) (Homo sapiens, UniProt P78536, N452Q/S266A)
Construct: 6xHis (C); made in house; host or cells: baculovirus/Hi5 insect cells
Assay: TACE kinetic assay: cleavage of internally quenched peptide substrate TNF-FRET 2 (Ki)
Assay type: biochemical
Conditions: TNF-FRET 2 substrate, read-out: Ki
measurement type: Ki (nM)
Provide the reading as a plain figure in nM.

Here are 3 compounds together with their reported answers.
O=C1NC(=O)C(CN2Cc3ccccc3C2=O)(c2ccccc2)N1 (stereo not drawn)    16.4
COc1ccc2c(c1)C(=O)N(C[C@@]1(c3cc4nc(-c5cncc(C#N)c5)ccc4o3)NC(=O)NC1=O)C2 [Compound 1529]    0.8
COc1ccc2c(c1)C(=O)N(C[C@@]1(c3cc4cc(C(=O)NCCN(C)C)ccc4o3)NC(=O)NC1=O)C2    0.75

Next compound, Ki to be filled in.
Report Ki for COc1ccc2c(c1)C(=O)N(C[C@@]1(c3cc4nc(NS(C)(=O)=O)ccc4o3)NC(=O)NC1=O)C2 please.
2.17

###

Experiment: Area under the curve determinations of plasma levels in rats (rrAUC), oral 10 mg/kg
Format: in vivo
Conditions: rat, plasma 0.5-6 h post-dosing, read-out: RR AUC (rapid rat AUC, rrAUC)
measurement type: AUC (µM·h)
Provide the reading as a plain figure in µM·h.

COc1ccc2c(c1)C(=O)N(C[C@@]1(c3cc4ccc(N)nc4o3)NC(=O)NC1=O)C2    0.391

Report AUC for CCC1(c2cc(F)c3oc([C@]4(CN5Cc6ccc(OC)cc6C5=O)NC(=O)NC4=O)cc3c2)NC(=O)NC1=O (stereo partly shown) please.
0.018

Report AUC for COc1ccc2c(c1F)C(=O)N(C[C@@]1(c3cc4cnc(C)cc4o3)NC(=O)NC1=O)C2 please.
26.3

Report AUC for COc1ccc2c(c1)C(=O)N(C[C@@]1(c3cc4nc(N5CCN(CCN(C)C)CC5)ccc4o3)NC(=O)NC1=O)C2 please.
0.06

Report AUC for COc1ccc2c(c1)C(=O)N(C[C@@]1(c3cc4cnc(-c5cncnc5)cc4o3)NC(=O)NC1=O)C2 please.
3.81

Report AUC for COc1ccc2c(c1)C(=O)N(C[C@@]1(c3cc4nc(Nc5cccnc5)ccc4o3)NC(=O)NC1=O)C2 please.
0.072

Report AUC for COc1ccc2c(c1F)C(=O)N(C[C@@]1(c3cc4ccncc4o3)NC(=O)NC1=O)C2 please.
2.79
